- Tested on: Triticum aestivum (spring wheat), TRZAS
- protocol: Greenhouse postemergence safening trial, visual injury on spring wheat
- Assay type: in vivo
- measurement parameters: safener alone 20 g/ha
Below: a set of entries, each annotated with reported % visual injury, Ob.
Unit % implied. Number only.

> print(dat)
                                   molecule  endpoint.value
1  CCCCCC(C)OC(=O)COc1ccc(Cl)c2cccnc12 (stereo not drawn)               0
2               COC(=O)COc1ccc(Cl)c2cccnc12               0
3  CCN(CC)CC.O=C(O)COc1ccc(Cl)c2cccnc12 [CQC-TEA, cloquintocet-triethylamine salt]               0

[Q] Please report % visual injury, Ob for the following molecule: CC(O)CN(CC(C)O)CC(C)O.O=C(O)COc1ccc(Cl)c2cccnc12 [CQC-TIPA, cloquintocet-triisopropanolamine salt]
[A] 0

[Q] Please report % visual injury, Ob for the following molecule: CNC.O=C(O)COc1ccc(Cl)c2cccnc12 [CQC-DMA, cloquintocet-dimethylammonium salt]
[A] 0

[Q] Please report % visual injury, Ob for the following molecule: O=C(O)COc1ccc(Cl)c2cccnc12
[A] 0
